Where do the numbers come from? From patent US5373000A.

Test system: Staph. aureus 209-P
experiment-summary: Antibacterial activities, MIC
Format: cell-based
condition: Staphylococcus aureus, read-out: MIC
What MIC was measured for each of the following?
Write the figure, then the unit, nothing else.

| structure-smiles-string | MIC |
| --- | --- |
| CO/N=C(\C(=O)N[C@@H]1C(=O)N2C(C(=O)[O-])=C(/C=C/C[N+](C)(C)CCC(N)=O)CS[C@H]12)c1nsc(N)n1 | 0.2 µg/mL |
| CO/N=C(\C(=O)N[C@@H]1C(=O)N2C(C(=O)[O-])=C(/C=C/C[N+]3(C)CCN(C(N)=O)CC3)CS[C@H]12)c1nsc(N)n1 | 0.4 µg/mL |
| CO/N=C(\C(=O)N[C@@H]1C(=O)N2C(C(=O)[O-])=C(/C=C/C[N+]34CCCN3CCC4)CS[C@H]12)c1nsc(N)n1 | 0.2 µg/mL |
| CO/N=C(\C(=O)N[C@@H]1C(=O)N2C(C(=O)[O-])=C(/C=C/C[N+](C)(C)Cc3ncon3)CS[C@H]12)c1nsc(N)n1 | 0.2 µg/mL |
| CO/N=C(\C(=O)N[C@@H]1C(=O)N2C(C(=O)[O-])=C(/C=C/C[N+]3(C)CC=CC3)CS[C@H]12)c1nsc(N)n1 | 0.2 µg/mL |

Now, please, on to the next compound.
INPUT: Give the reported value of MIC for this record: CO/N=C(\C(=O)N[C@@H]1C(=O)N2C(C(=O)[O-])=C(/C=C/C[N+]3(C)CCN(S(N)(=O)=O)CC3)CS[C@H]12)c1nsc(N)n1
OUTPUT: 0.2 µg/mL

----------
Test system: Staph. aureus 209-P
experiment-summary: Antibacterial activities, MIC
Format: cell-based
condition: Staphylococcus aureus, read-out: MIC
metric-name: MIC (µg/mL)
One number for each entry, in µg/mL.

| molecule | metric-name | recorded-result |
| --- | --- | --- |
| CC[N+](C)(C/C=C/C1=C(C(=O)[O-])N2C(=O)[C@@H](NC(=O)/C(=N\OC)c3nsc(N)n3)[C@H]2SC1)CC(N)=O (some centres unmarked) [Example 40] | MIC | 0.2 |

For every listed record, write down its MIC.
1. CO/N=C(\C(=O)N[C@@H]1C(=O)N2C(C(=O)[O-])=C(/C=C/C[N+](C)(C)Cc3ccoc3)CS[C@H]12)c1nsc(N)n1 [Example 26]
2. CO/N=C(\C(=O)N[C@@H]1C(=O)N2C(C(=O)[O-])=C(/C=C/C[N+](C)(C)CCO)CS[C@H]12)c1nsc(N)n1 [Example 18-A]
3. CO/N=C(\C(=O)N[C@@H]1C(=O)N2C(C(=O)[O-])=C(/C=C/C[N+]3(C)CCNCC3)CS[C@H]12)c1nsc(N)n1 [Example 5]
4. CO/N=C(\C(=O)N[C@@H]1C(=O)N2C(C(=O)[O-])=C(/C=C/C[N+](C)(C)CC(C)=O)CS[C@H]12)c1nsc(N)n1 [Example 17]
5. CO/N=C(\C(=O)N[C@@H]1C(=O)N2C(C(=O)[O-])=C(/C=C/C[N+](C)(C)Cc3cnc[nH]3)CS[C@H]12)c1nsc(N)n1 [Example 22]
6. CO/N=C(\C(=O)N[C@@H]1C(=O)N2C(C(=O)[O-])=C(/C=C/C[N+](C)(C)[C@H](CO)C(N)=O)CS[C@H]12)c1nsc(N)n1 [Example 39]
7. CO/N=C(\C(=O)N[C@@H]1C(=O)N2C(C(=O)[O-])=C(/C=C/C[N+](C)(C)Cc3csc(N)n3)CS[C@H]12)c1nsc(N)n1 [Example 25]
8. CO/N=C(\C(=O)N[C@@H]1C(=O)N2C(C(=O)[O-])=C(/C=C/C[N+]34CCC(C(N)=O)(CC3)CC4)CS[C@H]12)c1nsc(N)n1 [Example 4]

OUTPUT:
1. 0.2
2. 0.2
3. 0.2
4. 0.4
5. 0.2
6. 0.4
7. 0.2
8. 0.4

For every listed record, write down its MIC.
1. CO/N=C(\C(=O)N[C@@H]1C(=O)N2C(C(=O)[O-])=C(/C=C/C[N+](C)(C)Cc3nnco3)CS[C@H]12)c1nsc(N)n1 [Example 20]
2. CO/N=C(\C(=O)N[C@@H]1C(=O)N2C(C(=O)[O-])=C(/C=C/C[N+]3(C)CC=C(C(N)=O)CC3)CS[C@H]12)c1nsc(N)n1 (some centres unmarked) [Example 34]
3. CO/N=C(\C(=O)N[C@@H]1C(=O)N2C(C(=O)[O-])=C(/C=C/C[N+]3(CC(N)=O)CC[C@@H](O)C3)CS[C@H]12)c1nsc(N)n1 (some centres unmarked) [Example 45-1]
4. CO/N=C(\C(=O)N[C@@H]1C(=O)N2C(C(=O)[O-])=C(/C=C/C[N+]3(C)CCS(=O)(=O)CC3)CS[C@H]12)c1nsc(N)n1 [Example 31]
5. CC[N+](CC)(C/C=C/C1=C(C(=O)[O-])N2C(=O)[C@@H](NC(=O)/C(=N\OC)c3nsc(N)n3)[C@H]2SC1)CC(N)=O [Example 11]

OUTPUT:
1: 0.4; 2: 0.2; 3: 0.4; 4: 0.4; 5: 0.2
